measurement_description: soluble on expression in E. coli; label from the status in PepcDB or PDB records
recorded_metric: soluble on expression in E. coli

Problem: State its soluble on expression in E. coli for this sequence: MGHHHHHHSHRNRARFAARKQLVLNLVSSPGSGKTTLLTETLMRLKDSVPCAVIEGDQQTVNDAARIRATGTPAIQVNTGKGCHLDAQMIADAAPRLPLDDNGILFIENVGNLVCPASFDLGEKHKVAVLSVTEGEDK
Solution: soluble

Problem: Quickly give me recorded soluble on expression in E. coli for MSLELKVSLDNITMTAYIKSKKYLAMKQLIETHLAITVQTAMTDMFRATTGDGIHVVLHMNYDKQKGQDRKARPFRLEFNPNKLRLVDSEIIDTIIPFLEDISISRADLAFDLFEVDCSEFVLEKKGRPTATKEFRSSTGTLETKYLGAPRSEKQVRLYNKKKEQLQNGTDKDKDFASQFKHWWRLEFQLRSRSIDEIFEVIDTIIFKPFNLKGLSIETQIYLTALIHDKNIWKKLHRNTRARYKKILETHQTSDTDYLGLLKDLLKHERPRLENQLAYYGGRIDKNSFQPFCEGHHHHHH
Solution: soluble
